Test system: Mycobacterium tuberculosis
Assay: Antimicrobial activity against Mycobacterium tuberculosis H37Rv ATCC 27294 incubated for 7 days by BacTiter-Glo cell viability assay
Format: functional, organism-based
Settings: H37Rv ATCC 27294, BacTiter-Glo, 168 h
Kindly apply the following: label 1 if IC50 is less than 4 µM, label 0 in every other case.

Please review the entries below; each comes with its answer.
Hello, is IC50 of the following compound strictly smaller than 4 µM? NNC(=O)c1ccncc1 label 1

Let us now turn to Cc1c(C(=O)/C=C/c2ccc([N+](=O)[O-])s2)[n+]([O-])c2ccccc2[n+]1[O-] label 0

Can you check Cc1c(C(=O)/C=C/c2ccc([N+](=O)[O-])o2)[n+]([O-])c2ccccc2[n+]1[O-] next? label 0

Consider next the compound CC(C)C(=O)c1c(C(F)(F)F)nc2cc(N3CCOCC3)c(N3CCOCC3)cc2[n+]1[O-] in the same way. label 0

Input CO[C@H]1/C=C/O[C@@]2(C)Oc3c(C)c(O)c4c(O)c(c(/C=N/N5CCN(C)CC5)c(O)c4c3C2=O)NC(=O)/C(C)=C\C=C\[C@H](C)[C@H](O)[C@@H](C)[C@@H](O)[C@@H](C)[C@H](OC(C)=O)[C@@H]1C label 1

Ok, now Cc1c(C(=O)/C=C/c2ccccc2)[n+]([O-])c2ccccc2[n+]1[O-] label 0

Next:
A record lists O=C(c1ccc(F)cc1)c1c(C(F)(F)F)[n+]([O-])c2cc(Cl)c(Cl)cc2[n+]1[O-] . Is its IC50 below 4 µM? label 1
